Entry source: paper PMC11582101

Below, each of the compounds is paired with its reported pIC50 value.
assayedTarget: 5-LO (Homo sapiens)
Sequence (P09917 1-674): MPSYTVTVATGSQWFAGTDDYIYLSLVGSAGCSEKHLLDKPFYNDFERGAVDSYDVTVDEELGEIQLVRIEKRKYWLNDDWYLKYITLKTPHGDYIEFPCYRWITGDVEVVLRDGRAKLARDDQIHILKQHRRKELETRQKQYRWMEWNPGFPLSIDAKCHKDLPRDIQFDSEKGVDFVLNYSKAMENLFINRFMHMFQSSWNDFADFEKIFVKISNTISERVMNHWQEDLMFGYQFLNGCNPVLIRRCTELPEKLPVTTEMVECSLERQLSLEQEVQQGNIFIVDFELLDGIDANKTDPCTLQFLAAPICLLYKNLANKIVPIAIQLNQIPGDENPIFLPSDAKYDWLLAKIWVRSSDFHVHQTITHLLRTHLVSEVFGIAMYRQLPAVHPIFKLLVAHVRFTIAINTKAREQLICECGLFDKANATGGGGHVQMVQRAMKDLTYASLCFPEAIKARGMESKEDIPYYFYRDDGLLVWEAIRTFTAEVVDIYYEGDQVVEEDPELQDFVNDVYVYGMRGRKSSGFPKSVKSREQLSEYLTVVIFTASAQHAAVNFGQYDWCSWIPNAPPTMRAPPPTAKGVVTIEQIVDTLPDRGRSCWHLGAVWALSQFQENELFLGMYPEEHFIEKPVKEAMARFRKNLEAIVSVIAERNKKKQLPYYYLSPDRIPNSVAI
testDetails: 5-LO product formation in intact PMNL
In simple prose, pIC50 is minus the logarithm base ten of a concentration in moles per litre.

Query block: What value of measured pIC50 is listed for CC(C)(C)c1cc(C=C(C#N)C#N)cc(C(C)(C)C)c1O ?
Result block: 5.96

###

assayedTarget: 5-LO (Homo sapiens)
testDetails: 5-LO product formation in intact PMNL
conditionInfo: IC50 for inhibition of 5-LO product formation, PMNL, intact PMNL, 20 µM AA, 2.5 µM A23187; (95% CI), n = 3–6
Below, each of the compounds is paired with its reported IC50 value.
Numbers only here, please. The scale is nM.

* C[C@H](NC(=O)/C(C#N)=C/c1cccc(Br)n1)c1ccccc1 [WP1066] | 930

Lab note: next compound to report on.
Query block: What value of measured IC50 is listed for N#C/C(=C\c1ccc(O)c(O)c1)C(=O)NCc1ccccc1 [AG490] ?
Result block: 1100

###

assayedTarget: UniProtKB P09917
Sequence (P09917 1-674): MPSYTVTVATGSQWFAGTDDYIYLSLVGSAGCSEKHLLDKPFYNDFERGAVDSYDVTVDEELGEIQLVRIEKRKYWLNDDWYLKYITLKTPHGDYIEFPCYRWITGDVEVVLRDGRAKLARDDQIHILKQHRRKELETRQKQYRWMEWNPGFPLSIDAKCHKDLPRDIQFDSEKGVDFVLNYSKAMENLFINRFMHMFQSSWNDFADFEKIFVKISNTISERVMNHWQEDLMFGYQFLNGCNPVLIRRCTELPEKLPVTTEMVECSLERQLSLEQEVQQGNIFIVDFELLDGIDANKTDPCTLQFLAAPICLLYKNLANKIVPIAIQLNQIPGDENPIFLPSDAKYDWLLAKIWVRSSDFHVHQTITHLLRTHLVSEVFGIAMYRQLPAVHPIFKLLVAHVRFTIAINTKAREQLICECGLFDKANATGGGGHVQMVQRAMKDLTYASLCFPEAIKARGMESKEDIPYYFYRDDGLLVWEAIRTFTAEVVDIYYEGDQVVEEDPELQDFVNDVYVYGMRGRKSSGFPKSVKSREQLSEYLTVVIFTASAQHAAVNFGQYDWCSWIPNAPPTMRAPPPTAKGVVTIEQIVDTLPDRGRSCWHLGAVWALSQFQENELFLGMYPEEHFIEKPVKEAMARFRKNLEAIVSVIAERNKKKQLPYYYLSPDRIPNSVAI
testDetails: 5-LO activity in PMNL homogenates
Assay type: biochemical
Set-up: endogenous in cells; host or cells: human PMNL (polymorphonuclear leukocytes)
conditionInfo: sonicated PMNL, with 1 mM GSH, 20 µM AA; read-out: IC50 5-LO, PMNL homogenates + GSH
reportedMetric: IC50
Field: value (include unit after the number)

Query block: What value of measured IC50 is listed for CCC[C@H](NC(=O)/C(C#N)=C/c1cccc(Br)n1)c1ccccc1 [Degrasyn] ?
Result block: 4.2 µM
